Molecular target: T1, recombinant canine OX40L ECD-TNCc-HIS protein (canine)
T1 construct: also called Trimeric OX40L probe (HIS tag); trimeric canine OX40L
T1 chain: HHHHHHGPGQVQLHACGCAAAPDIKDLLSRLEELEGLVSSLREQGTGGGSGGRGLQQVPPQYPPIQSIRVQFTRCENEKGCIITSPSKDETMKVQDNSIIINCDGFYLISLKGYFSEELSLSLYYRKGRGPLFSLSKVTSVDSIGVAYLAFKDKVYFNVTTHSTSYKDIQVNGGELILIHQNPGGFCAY
Experiment: SPR Koff (kd2)
readout kind: koff (s⁻¹)
Please give a number only; it is taken to be in s⁻¹.

Ask: Provide only the value of recorded koff for PMX065 (antibody, V domains shown, also called PMX65) VH: EVQLVESGGDLVKPGGSLRLSCVASGFTFNNYEMYWVRQAPGKGLEWVARIYESGSTTFSAEAVTGRFTISRDNAKNMVYLQMNSLRAEDTAVYYCASASSSSWRFDYWGQGTLVTVSS VL: SYVLTQLPSVSVTLGQTARITCGGDSIGRKNVCWFQQRLGQAPELIIYDDRSRPSGIPERFSGANSGNTATLTISGALAEDEADYYCQVWDSSTGVFGGGTHLTVL
Result: 0.412

Ask: Identify koff associated with the binder PMX058 (antibody, V domains shown, also called PMX58) VH: EVQLVESGGDLVKPEGSLRLSCVVSDFTFGSYGMSWVRQAPGKGLQWVAYISSDGRSTSYTDAVKGRFTISRDNAKNTLHLQMNSLRTEDTAVYYCAKLGRGFAFGYWGQGTLVTVSS VL: SYVLTQLPSKNVTLKQPAHITCGGDNIGSKSVHWYQQKLGQAPVLIIYYDSNRPTGIPERFSGANSGNTATLTISGALAEDEADYYCQVWDSSASVFGGGTHLTVL
Result: 0.323
